Molecular target: T1, CD134 expressed on the cell surface of HT1080_OX40 cells (human, UniProt P43489 29-277)
T1 construct: whole, on cells; species not restated for the HT1080 transfectant
T1 sequence (looked up): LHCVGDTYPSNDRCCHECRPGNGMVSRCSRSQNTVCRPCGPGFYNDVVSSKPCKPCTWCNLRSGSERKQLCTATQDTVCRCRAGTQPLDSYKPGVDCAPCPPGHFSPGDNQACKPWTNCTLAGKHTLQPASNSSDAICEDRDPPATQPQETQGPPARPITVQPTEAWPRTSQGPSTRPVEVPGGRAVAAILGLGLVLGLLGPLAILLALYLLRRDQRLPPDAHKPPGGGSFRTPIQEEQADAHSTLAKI
Test: HT1080_OX40 cells, imaging; also: test concentration or dose not given here
Here the recorded Cellular binding assay [RFU] is given for each entry.
Give the number; RFU is assumed, so skip it.

Examples with their reported Cellular binding assay [RFU] follow.
binder	Cellular binding assay [RFU], RFU
P018.S.12.A.F02 (antibody, V domains shown, V regions on human Ig constant parts; also called AB134_78) VH: QSLEESGGRLVTPGTPLTLTCTASGFSLIKSHINWVRQAPGKGLEWVGGIAYDDNTYYANWAKGRFTISKTSTTVDLRITSPTTADTATYFCAREDSSGWGSFNLWGQGTLVTVSS VL: AQVLTQTPSSVSAAVGGTVTISCQSSQSVYATNQLSWFQQKSGQPPKRLIYSASTLASGVSSRFKGSGSGTQFTLTISGVQSDDAATYYCQGAYDCSGGDCRAFGGGTEVVVK	549
P018.S.12.A.H03 (antibody, V domains shown, V regions on human Ig constant parts; also called AB134_89) VH: QSLEESRGGLVQPEGSLTLTCKASGFSFSSGYYMCWVRQAPGKGLEWIGCIYSGSDSACYASWAKGRFTISKTSSTTVTLQMTSLTVADTATYFCVRDLGDYNALSYTINLWGPGTLVTVSS VL: DVVMTQTPSSVSAAVGGTVTIKCQASQSISTNLAWYQEKAGQPPKLLIYRASTVASGVPSRFKGSGSGTQFTLTISDLESADATTYFCQCIDYDDYGGTFGGGTEVVVK	496
P018.S.12.A.E01 (antibody, V domains shown, V regions on human Ig constant parts; also called AB134_72) VH: QSVEESGGRLVTPGGSLTLTCTVSGIDLSSADMSWVRQAPGEGLEYIGWINNVGSAYYASWAKGRFSISKTSSTTVDLKVTSLTTEDTATYFCVRGYWLDLWGQGTLVTVSS VL: AAVLTQTPSPVSAAVGGTVSISCQSSVNVYNNNYLAWFQQKPGQPPKLLIYAASTLPSGVSSRFSGNGSGTEFTLTISGVQSDDAATYYCVGYYSSTDDNGFGGGTEVVVK	463
P018.S.12.A.G01 (antibody, V domains shown, V regions on human Ig constant parts; also called AB134_83) VH: QSVEESGGRLVTPGTPLTLTCTVSGFSLSSSTMGWFRQAPGKGLEWIGVIYTDGDTYYARWAKGRFTISKTSTTINLSITSPTSEDTATYFCARRANGYDDFDPWGPGTLVTVSS VL: AYDMTQTPASVEVAVGGTVTIKCQASESISSYLNWYQQKPGQPPKLLIYYESYLASGVPSRFKGSGSGTEYTLTISGVESADAATYYCQQGFSYINVDNTFGGGTEVVVK	526
P018.S.11.A.B03 (antibody, V domains shown, V regions on human Ig constant parts; also called AB134_24) VH: QSLEESGGRLVTPGTPLTLTCTVSGFSLSNYAMSWVRQAPGKGLEWIAIISGSGSTNYASWAKGRFTLSKASTTVALKITSPTTEDTATYFCGRGRDDDYAWDLWGQGTLVTVSS VL: DVVMTQTPASVSEPVGGTVTIKCQASQTISNYLAWYQQKPGQPPKLLIYAASTLASGVSSRFRGSGSGTEFSLTISDLESADAATYYCHCTYYDSSYHGFGGGTEVVVK	527

Entry P018.S.04.A.G05 (antibody, V domains shown, V regions on human Ig constant parts; also called AB134_14) VH: QSVEESGGRLVTPGTPLTLTCTVSGFSLSTYYMSWVRQAPGKSLEWIGCIHGDDGSTWYASWVQGRFTISKASTTVDLQIASPTTEDTATYFCARGLPYWPNDGDFNLWGQGTLVTVSS VL: TQVLTQTPSPVSAAVGGTVSISCQSSQSVYNNNWLSWFQQKPGQPPKLLVYGASTLASGVPSRFKGSGSGTQFTLTISDLESDDAATYYCAGGYYTTSDNGFGGGTEVVVK : reported Cellular binding assay [RFU] = ?
451

Record: P018.S.12.A.G04 (antibody, V domains shown, V regions on human Ig constant parts; also called AB134_86) VH: QSVEESGGRLVTPGTPLTLTCTVSGFSLNSYDMSWVRQAPGKGLEWIGFISAIDNTYYASWAKGRFTISKTSTTVDLKITSPTTEDTATYFCASDSYGWAYVYYFNLWGPGTLVTVSS VL: AVVLTQTPASVSATVGGTVTINCRASEDIGSYLGWYQQKPGQPPKLLIHDASDLASGVPSRFSGSGSGTEFTLTISGVQSDDAATYYCQSAWYSSDSDKMAFGGGTEVVVK
534

Record: P018.S.12.A.B03 (antibody, V domains shown, V regions on human Ig constant parts; also called AB134_58) VH: QSLEESGGRLVTPGTPLTLICTVSGIDLSSGAMGWVRQAPGKGLEYIGYIYTGSGTTSYASWVNGRFTISMTSTTVDLKITSPTTEDTATYFCARDAASSYWGHFTLWGQGTLVTVSS VL: DIVMTQTPASVEAAVGGTVTIKCQASENIYSSLAWYQQKPGQPPKLLIYRTSTLASGVPSRFKGSGSGTQFTLTISDLESDDAATYYCQSYYHNSGGGYDYGFGGGTEVVAK
446

Record: P018.S.04.A.B04 (antibody, V domains shown, V regions on human Ig constant parts; also called AB134_6) VH: QSLEESGGRLVTPGTPLTLTCTASGIDLNNYAMSWVRQAPGKGLEWIGIISGAGYTYYTTWAKGRFTISKTSTTVDLKITSPTTEDTATYFCARIYDSYGYAYVPYYDMDLWGPGTLVTVSS VL: AAVLTQTPSPVSTAVGGTVTINCQSSQSVFMNNYLSWYQQKPGQPPKLLIYDASTLASRVPDRFSGSGSGTQFTLTISGVQSDDAAAYYCLGGYDDDSATTFGGGTEVVVE
331

Record: P018.S.12.A.A05 (antibody, V domains shown, V regions on human Ig constant parts; also called AB134_54) VH: QSLEESGGRLVTPGTPLTLTCTASGFSLSNYYINWVRQAPGKGLEWIGIIDKSGSAYYASWARGRFTISKTSTTVGLKIPSPTTEDTATYFCARGYGGYADHGLGLWGQGTLVTVSS VL: DVVMTQTPASVSEPVGGTVTIKCQASQSIAGWLAWYQQKPGQPPKLLIYQASKLASGVPSRFSGSGSGTEYTLTISDLESDDAATYYCQCTYGSASGSNGFGGGTEVVVK
503
